// reported MIC per item
System: Salmonella enteritidis
assay_name: Antibacterial activity against Salmonella enteritidis ATCC 13076 after 24 hrs by microdilution test
Assay type: functional, Salmonella enterica subsp. enterica serovar Enteritidis
condition_description: Salmonella enterica, ATCC 13076, 24 h
Write the number in µg/mL without appending the unit.

Recorded MIC, per entry:
- compound: "CCN(CC)S(=O)(=O)c1cc(OC)c(OC)cc1Cc1n[nH]c(=S)n1-c1ccccc1"
  MIC [µg/mL]: 150
- compound: "COc1cc(Cc2n[nH]c(=S)n2-c2ccc(Cl)cc2)c(S(=O)(=O)N2CCCCC2)cc1OC"
  MIC [µg/mL]: 150

Continue with the compound presented below.
Task: Would you kindly share the measured MIC for CN[C@@H]1[C@H](O[C@H]2[C@H](O[C@H]3[C@H](O)[C@@H](O)[C@H](N=C(N)N)[C@@H](O)[C@@H]3N=C(N)N)O[C@@H](C)[C@]2(O)C=O)O[C@@H](CO)[C@H](O)[C@H]1O [STREPTOMYCIN] ?
Result: 50
